This section presents molecules with their documented MIC values.
# Tested on: Acinetobacter baumannii
# test_details: Antibacterial activity against Acinetobacter baumannii assessed as bacterial growth inhibition
# Type: functional
Report only the number, with the unit µg/mL understood.

CN[C@H](CC(C)C)C(=O)N[C@H]1C(=O)N[C@@H](CC(N)=O)C(=O)N[C@H]2C(=O)N[C@H]3C(=O)N[C@H](C(=O)N[C@H](C(=O)NNCc4ccc(-c5ccc(Cl)cc5)cc4)c4cc(O)cc(O)c4-c4cc3ccc4O)[C@H](O)c3ccc(c(Cl)c3)Oc3cc2cc(c3O[C@@H]2O[C@H](CO)[C@@H](O)[C@H](O)[C@H]2O[C@H]2C[C@](C)(N)[C@H](O)[C@H](C)O2)Oc2ccc(cc2Cl)[C@H]1O: 128

Observed MIC, Acinetobacter baumannii, CN[C@H](CC(C)C)C(=O)N[C@H]1C(=O)N[C@@H](CC(N)=O)C(=O)N[C@H]2C(=O)N[C@H]3C(=O)N[C@H](C(=O)N[C@H](C(=O)NNCc4ccc(-c5ccc(C(F)(F)F)cc5)cc4)c4cc(O)cc(O)c4-c4cc3ccc4O)[C@H](O)c3ccc(c(Cl)c3)Oc3cc2cc(c3O[C@@H]2O[C@H](CO)[C@@H](O)[C@H](O)[C@H]2O[C@H]2C[C@](C)(N)[C@H](O)[C@H](C)O2)Oc2ccc(cc2Cl)[C@H]1O : 64
